Recorded measurements of % of peptide at 4 hours after incubation at 37EC, Serum, one per entry
# run description: In vitro serum stability assay (HPLC) of In-111 labeled peptide
# Assay type: in vitro ADME, human
# particulars: human serum, 37EC, 4 hours
Where a SMILES comes first, the peptide text is derived from it. [ ]: non-standard residue; d: D form. The star is where a group is joined. ξ: configuration not given here. Ala(1-amidino-4-piperidyl) = N=C(N)N1CCC(C[C@H](N)C(=O)O)CC1; DTPA = O=C(O)CN(CCN(CC(=O)O)CC(=O)O)CCN(CC(=O)O)CC(=O)*; ξGly(4-Pip(1-amidino)) = N=C(N)N1CCC(C(N)C(=O)O)CC1; Ala(cPr) = N[C@@H](CC1CC1)C(=O)O; Tle = CC(C)(C)[C@H](N)C(=O)O; Pip = O=C(O)[C@@H]1CCCCN1; Aze = O=C(O)[C@@H]1CCN1
Field: numeric (%). Do not append units.

Would you please look over these solved cases?
CC(C)C[C@H](NC(=O)[C@@H](NC(=O)[C@H](Cc1ccc(O)cc1)NC(=O)[C@@H]1CCCCN1C(=O)[C@H](CCCNC(=N)N)NC(=O)C(NC(=O)[C@@H]1CCCN1C(=O)[C@@H](CCCCN)NC(=O)CN(CCN(CCN(CC(=O)O)CC(=O)O)CC(=O)O)CC(=O)O)C1CCN(C(=N)N)CC1)C(C)(C)C)C(=O)O (stereo partly drawn) ({DTPA}-[dK]P[ξGly(4-Pip(1-amidino))]R[Pip]Y[Tle]L-OH): 69.5
CC[C@H](C)[C@H](NC(=O)[C@H](Cc1ccc(O)cc1)NC(=O)[C@@H]1CCCN1C(=O)[C@H](CCCNC(=N)N)NC(=O)C(NC(=O)[C@@H]1CCCN1C(=O)[C@@H](CCCCN)NC(=O)CN(CCN(CCN(CC(=O)O)CC(=O)O)CC(=O)O)CC(=O)O)C1CCN(C(=N)N)CC1)C(=O)N[C@@H](CC(C)C)C(=O)O (single isomer, unassigned): 19.5
CC(C)C[C@H](NC(=O)[C@@H](NC(=O)[C@H](Cc1ccc(O)cc1)NC(=O)[C@@H]1CCCN1C(=O)[C@H](CCCNC(=N)N)NC(=O)[C@H](CC1CCN(C(=N)N)CC1)NC(=O)[C@@H]1CCCN1C(=O)[C@@H](CCCCN)NC(=O)CN(CCN(CCN(CC(=O)O)CC(=O)O)CC(=O)O)CC(=O)O)C(C)(C)C)C(=O)O ({DTPA}-[dK]P[Ala(1-amidino-4-piperidyl)]RPY[Tle]L-OH): 96.5
CC[C@H](C)[C@H](NC(=O)[C@H](Cc1ccc(O)cc1)NC(=O)[C@@H]1CCCN1C(=O)C(Cc1ccc(NC(=N)N)cc1)NC(=O)[C@H](CCCNC(=N)N)NC(=O)[C@@H]1CCCN1C(=O)[C@@H](CCCCN)NC(=O)CN(CCN(CCN(CC(=O)O)CC(=O)O)CC(=O)O)CC(=O)O)C(=O)N[C@@H](CC(C)C)C(=O)O (single isomer, unassigned): 16.3
CC(C)C[C@H](NC(=O)[C@@H](NC(=O)[C@H](Cc1ccc(O)cc1)NC(=O)[C@@H]1CCN1C(=O)[C@H](CCCNC(=N)N)NC(=O)C(NC(=O)[C@@H]1CCCN1C(=O)[C@@H](CCCCN)NC(=O)CN(CCN(CCN(CC(=O)O)CC(=O)O)CC(=O)O)CC(=O)O)C1CCN(C(=N)N)CC1)C(C)(C)C)C(=O)O (stereo partly drawn) ({DTPA}-[dK]P[ξGly(4-Pip(1-amidino))]R[Aze]Y[Tle]L-OH): 79.2
CC[C@H](C)[C@H](NC(=O)[C@H](Cc1ccc(O)cc1)NC(=O)[C@@H]1CCCN1C(=O)[C@H](CCCNC(=N)N)NC(=O)[C@H](CCCNC(=N)N)NC(=O)CN(CCN(CCN(CC(=O)O)CC(=O)O)CC(=O)O)CC(=O)O)C(=O)N[C@@H](CC(C)C)C(=O)O [DTPA-Arg-Arg-Pro-Tyr-Ile-Leu-OH, reference compound]: 1.6

-- ask Supply measured % of peptide at 4 hours after incubation at 37EC, Serum of CC(C)(C)[C@H](NC(=O)[C@H](Cc1ccc(O)cc1)NC(=O)[C@@H]1CCCN1C(=O)[C@H](CCCNC(=N)N)NC(=O)C(NC(=O)[C@@H]1CCCN1C(=O)[C@@H](CCCCN)NC(=O)CN(CCN(CCN(CC(=O)O)CC(=O)O)CC(=O)O)CC(=O)O)C1CCN(C(=N)N)CC1)C(=O)N[C@@H](CC1CC1)C(=O)O (some centres unmarked) ({DTPA}-[dK]P[ξGly(4-Pip(1-amidino))]RPY[Tle][Ala(cPr)]-OH) in your reply.
-- reply 88.1

-- ask Supply measured % of peptide at 4 hours after incubation at 37EC, Serum of CC(C)C[C@H](NC(=O)[C@@H](NC(=O)[C@@H](Cc1ccc(O)cc1)NC(=O)[C@@H]1CCCN1C(=O)[C@H](CCCNC(=N)N)NC(=O)C(NC(=O)[C@@H]1CCCN1C(=O)[C@@H](CCCCN)NC(=O)CN(CCN(CCN(CC(=O)O)CC(=O)O)CC(=O)O)CC(=O)O)C1CCN(C(=N)N)CC1)C(C)(C)C)C(=O)O (some centres unmarked) in your reply.
-- reply 98.9

-- ask Supply measured % of peptide at 4 hours after incubation at 37EC, Serum of CC[C@H](C)[C@H](NC(=O)[C@H](Cc1ccc(O)cc1)NC(=O)[C@@H]1CCCN1C(=O)[C@H](CCCNC(=N)N)NC(=O)C(Cc1ccc(NC(=N)N)cc1)NC(=O)[C@@H]1CCCN1C(=O)[C@@H](CCCCN)NC(=O)CN(CCN(CCN(CC(=O)O)CC(=O)O)CC(=O)O)CC(=O)O)C(=O)N[C@@H](CC(C)C)C(=O)O (some centres unmarked) in your reply.
-- reply 14.1

-- ask Supply measured % of peptide at 4 hours after incubation at 37EC, Serum of CC(C)C[C@H](NC(=O)[C@@H](NC(=O)[C@H](Cc1ccc(O)cc1)NC(=O)[C@@H]1CCCN1C(=O)[C@H](CCCNC(=N)N)NC(=O)C(NC(=O)[C@@H]1CCCN1C(=O)[C@@H](CCCCN)NC(=O)CN(CCN(CCN(CC(=O)O)CC(=O)O)CC(=O)O)CC(=O)O)C1CCN(C(=N)N)CC1)C(C)(C)C)C(=O)O (single isomer, unassigned) in your reply.
-- reply 87.5

-- ask Supply measured % of peptide at 4 hours after incubation at 37EC, Serum of CC[C@H](C)[C@H](NC(=O)[C@H](Cc1ccc(O)cc1)NC(=O)[C@@H]1CCCN1C(=O)C(CCc1ccnc(N)n1)NC(=O)[C@H](CCCNC(=N)N)NC(=O)[C@@H]1CCCN1C(=O)[C@@H](CCCCN)NC(=O)CN(CCN(CCN(CC(=O)O)CC(=O)O)CC(=O)O)CC(=O)O)C(=O)N[C@@H](CC(C)C)C(=O)O (single isomer, unassigned) in your reply.
-- reply 15.7

These measurements were taken from patent US7015306B2.
